Data provenance is ChEMBL document CHEMBL1135255.

TARGET_SYSTEM: Beta-lactamase 1 (Bacillus cereus) (UniProt P00809)
Sequence (P00809 whole entry): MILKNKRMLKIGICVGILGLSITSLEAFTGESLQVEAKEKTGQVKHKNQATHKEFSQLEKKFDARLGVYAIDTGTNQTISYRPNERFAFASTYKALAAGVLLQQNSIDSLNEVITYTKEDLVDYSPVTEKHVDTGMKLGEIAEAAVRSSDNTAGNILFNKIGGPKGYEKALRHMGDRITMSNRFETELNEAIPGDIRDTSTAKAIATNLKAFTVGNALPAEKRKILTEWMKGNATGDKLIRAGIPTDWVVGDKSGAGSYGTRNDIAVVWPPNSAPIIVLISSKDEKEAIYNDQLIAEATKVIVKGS
ASSAY_SUMMARY: Inhibitory activity at beta-lactamase I from Bacillus cereus expressed as percent inhibition of beta-lactam hydrolysis at a concentration of 1.0 umol/L
Task for the reader: assign each of the following molecules its reported inhibition.
Give bare numbers, in %.

• O=C(O)[C@H]1/C(=C/CO)O[C@@H]2CC(=O)N21 = 9

State recorded inhibition for all listed molecules.
1. C/C=C1/C(=O)N2C(C(=O)O)=C3CCCCC3[C@@H]12 (some centres undefined)
2. C/C=C1/C(=O)N2C(C(=O)O)=C3CCSCC3[C@@H]12 (some centres undefined)
3. CC1(C)[C@H](C(=O)O)N2C(=O)C[C@H]2S1(=O)=O

Result:
-1
6
2
